- Test Details: Stability in rat liver S9 fraction assessed as parent compound remaining at 5 uM after 90 mins in presence of NADPH by LC-MS/MS analysis
- Type: ADME, subcellular
- Test Parameters: read-out: Stability
Parameter: remaining at […], 5 µM (%)

Query Smiles: Nc1ccc(-c2nnn(Cc3c(F)cc(C(=O)NO)cc3F)n2)cc1
remaining at […], 5 µM / %: 48
--
Query Smiles: O=C(NO)c1cc(F)c(Cc2nnc(-c3ccncc3)s2)c(F)c1
remaining at […], 5 µM / %: 32

1: Cc1cc(-c2nnc(Sc3c(F)cc(C(=O)NO)cc3F)n2C)nn1C
2: O=C(NO)c1cc(F)c(Cn2nnc(-c3ccccn3)n2)c(F)c1
Prompt line: Param pair: 1 , 2 . Output: the one whose remaining at […], 5 µM is numerically greater. Please indicate the selected item by its label.
Response line: 2
(2: 97%, 1: 30%)

----------
- Test Details: Selectivity ratio of IC50 for N-terminal His-tagged human HDAC11 expressed in baculovirus expression system to IC50 for human N-terminal GST-tagged HDAC6 expressed in baculovirus infected sf9 insect cells
Parameter: Ratio IC50
Keep the answer to the number alone.

Worked examples, 4 molecules total:
Query Smiles: O=C(NO)c1ccc(Cn2nnc(-c3ncccn3)n2)cc1
Ratio IC50: 103

Query Smiles: Cn1c(Sc2ccc(C(=O)NO)cc2)nnc1-c1cccs1
Ratio IC50: 119

Query Smiles: Cn1c(Sc2c(F)cc(C(=O)NO)cc2F)nnc1-c1cccnn1
Ratio IC50: 278

Query Smiles: O=C(NO)c1cc(F)c(Cc2nnc(-c3ccncc3)s2)c(F)c1
Ratio IC50: 291

Prompt line: # get_value(readout='Ratio IC50', item= `Cc1cc(-c2nnc(Sc3c(F)cc(C(=O)NO)cc3F)n2C)nn1C` )
Response line: 294

Prompt line: Please give the result for `Cn1c(Sc2c(F)cc(C(=O)NO)cc2F)nnc1-c1cccs1` too.
Response line: 254

Prompt line: Please give the result for `Cn1c(Sc2c(F)cc(C(=O)NO)cc2F)nnc1-c1ncccc1F` too.
Response line: 250

Prompt line: Please give the result for `Cn1c(Sc2c(F)cc(C(=O)NO)cc2F)nnc1-c1ccc(CN2CCCCC2)cc1` too.
Response line: 342

Prompt line: Please give the result for `O=C(NO)c1cc(F)c(Cn2nnc(-c3ccccn3)n2)c(F)c1` too.
Response line: 696

----------
- Test Details: Terminal half life in CD-1 mouse at […], iv measured within 6 hrs by LC-MS/MS analysis
- Format: ADME, organism-based
- Test Parameters: in vivo, read-out: beta t1/2 (converted)
Parameter: half-life at 6 h (h)
Answer in h, number only, no unit symbol.

Prompt line: # get_value(readout='half-life at 6 h', item= `O=C(NO)c1ccc(Cn2nnnc2-c2cccs2)cc1` )
Response line: 1

----------
- Test Details: Stability in human plasma assessed as parent compound remaining at 100 uM after 4 hrs by LC-MS/MS analysis
- Assay type: ADME, cell-free
- Test Parameters: read-out: Stability
Parameter: remaining at 4 h, 100 µM (%)

Query Smiles: CN1CCc2c(c3ccccc3n2Cc2ccc(C(=O)NO)cc2)C1
Readout Number: 98
--
Query Smiles: O=C(NO)c1cc(F)c(Cc2nnc(-c3ccncc3)s2)c(F)c1
Readout Number: 93
--
Query Smiles: CCCCN(Cc1ccc(C(=O)NO)cc1)C(=O)Nc1ccccc1
Readout Number: 100
--
Query Smiles: O=C(NO)c1cc(F)c(Cn2nnc(-c3ncccn3)n2)c(F)c1
Readout Number: 93
--
Query Smiles: O=C(NO)c1ccc(CC(=O)N(CCO)c2ccccc2)cc1
Readout Number: 79

----------
- System: 697
- Test Details: Cytotoxicity against human 697 cells after 48 hrs by CellTiter 96 aqueous one solution assay
- Assay type: cell-based
- Test Parameters: Homo sapiens, 697, 48 h
As shown below, each of these compounds has a reported IC50 value.

Worked examples, 2 compounds total:
Query Smiles: O=C(NO)c1cc(F)c(Cc2nnc(-c3ccncc3)s2)c(F)c1
Experimental Target: 697
IC50: > 1 µM
--
Query Smiles: O=C(NO)c1cnc(NC2(c3ccccc3)CC2)nc1
Experimental Target: 697
IC50: 3.39 µM

Prompt line: # get_value(readout='IC50', item= `Cc1cc(-c2nnc(Sc3c(F)cc(C(=O)NO)cc3F)n2C)nn1C` )
Response line: > 1 µM

Prompt line: Please give the result for `O=C(NO)c1cc(F)c(Cn2nnc(-c3ccco3)n2)c(F)c1` too.
Response line: > 1 µM

Prompt line: Please give the result for `Cn1c(Sc2c(F)cc(C(=O)NO)cc2F)nnc1-c1cccc(CN2CCCCCC2)c1` too.
Response line: > 1 µM

Prompt line: Please give the result for `O=C(CCCCCCNC(=O)c1cnc(N(c2ccccc2)c2ccccc2)nc1)NO` too.
Response line: 0.201 µM

Prompt line: Please give the result for `Cn1c(Sc2c(F)cc(C(=O)NO)cc2F)nnc1-c1ccc(CN2CCCCC2)cc1` too.
Response line: > 1 µM

----------
- Test Details: Stability in rat liver S9 fraction assessed as parent compound remaining at 5 uM after 90 mins in presence of NADPH by LC-MS/MS analysis
- Type: ADME, subcellular
- Test Parameters: read-out: Stability
Parameter: remaining at […], 5 µM (%)

Query Smiles: Cn1c(Sc2c(F)cc(C(=O)NO)cc2F)nnc1-c1cccs1
Readout Number: 71
//
Query Smiles: O=C(NO)c1cc(F)c(Cn2nnc(-c3ccco3)n2)c(F)c1
Readout Number: 68
//
Query Smiles: Cn1c(Sc2c(F)cc(C(=O)NO)cc2F)nnc1-c1ncccc1F
Readout Number: 70

----------
- System: 697
- Test Details: Cytotoxicity against human 697 cells after 48 hrs by CellTiter 96 aqueous one solution assay
- Format: cell-based
- Test Parameters: Homo sapiens, 697, 48 h
As shown below, each of these molecules has a reported IC50 value.

Query Smiles: Cn1c(Sc2c(F)cc(C(=O)NO)cc2F)nnc1-c1cccs1
IC50: > 1 µM

Prompt line: # get_value(readout='IC50', item= `Cn1c(Sc2c(F)cc(C(=O)NO)cc2F)nnc1-c1cccnn1` )
Response line: > 1 µM

Prompt line: Please give the result for `Nc1ccc(-c2nnn(Cc3c(F)cc(C(=O)NO)cc3F)n2)cc1` too.
Response line: > 1 µM

----------
As shown below, each of these molecules has a reported Ratio IC50 value.
- Test Details: Selectivity ratio of IC50 for N-terminal His-tagged human HDAC11 expressed in baculovirus expression system to IC50 for human N-terminal GST-tagged HDAC6 expressed in baculovirus infected sf9 insect cells
Keep the answer to the number alone.

Query Smiles: Cn1c(Sc2c(F)cc(C(=O)NO)cc2F)nnc1-c1cccc(CN2CCCCCC2)c1
Ratio IC50: 169
--
Query Smiles: O=C(NO)c1cc(F)c(Cn2nnc(-c3ccco3)n2)c(F)c1
Ratio IC50: 259

Next molecule, please.
Prompt line: # get_value(readout='Ratio IC50', item= `Nc1ccc(-c2nnn(Cc3c(F)cc(C(=O)NO)cc3F)n2)cc1` )
Response line: 86
